target.or.system: human APJ receptor (Homo sapiens)
Construct: expressed in transfected cells; host or cells: HEK293
Sequence (P35414 1-380): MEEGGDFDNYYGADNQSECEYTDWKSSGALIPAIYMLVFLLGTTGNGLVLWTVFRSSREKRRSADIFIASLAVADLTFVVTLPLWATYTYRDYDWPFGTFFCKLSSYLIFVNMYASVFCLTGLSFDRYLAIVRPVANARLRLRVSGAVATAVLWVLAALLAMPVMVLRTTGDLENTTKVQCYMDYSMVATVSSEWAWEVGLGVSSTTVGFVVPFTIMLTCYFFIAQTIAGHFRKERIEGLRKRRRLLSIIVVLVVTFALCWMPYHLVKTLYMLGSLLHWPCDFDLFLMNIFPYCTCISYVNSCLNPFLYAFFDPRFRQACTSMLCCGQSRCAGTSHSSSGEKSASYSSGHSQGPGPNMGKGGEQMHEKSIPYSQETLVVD
procedure.details: Intracellular cAMP accumulation assay (APJ hcAMP, HTRF)
Type: cell-based
condition.context: HEK293 cells stably expressing human APJ receptor; inhibition of forskolin-mediated cAMP production; read-out: APJ cAMP Potency range
measure: EC50

molecule	measure	recorded.value
CCc1cccc(CC)c1-n1c(-c2ccn(CC)n2)nc(=O)c(Cc2ccc(-c3ccnc(F)c3C)c(F)c2)c1O [Example 77]	EC50	0.01 to 10 nM
COc1cccc(OC)c1-n1c(CCC2CC2)nc(O)c(Cc2ccc(-n3cc(F)ccc3=O)cc2)c1=O [Example 56]	EC50	0.01 to 10 nM
CCCCc1nc(O)c(Cc2ccc(NC(C)=O)cc2)c(=O)n1-c1c(OC)cccc1OC [Example 9]	EC50	10 to 100 nM
CCc1cccc(CC)c1-n1c(-c2ccn(CC(C)C)n2)nc(=O)c(Cc2ccc(-c3ccc(F)cc3C(N)=O)c(F)c2)c1O [Example 92]	EC50	10 to 100 nM
CCc1cccc(CC)c1-n1c(-c2ccn(C)n2)nc(=O)c(Cc2ccc(-c3ccncc3C)c(F)c2)c1O [Example 70]	EC50	0.01 to 10 nM
CCc1cccc(CC)c1-n1c(-c2csc(C)n2)nc(=O)c(Cc2ccc(-c3ccc(F)nc3C)c(F)c2)c1O [Example 72]	EC50	0.01 to 10 nM
CCCCc1nc(O)c(Cc2ccc(S(C)(=O)=O)cc2)c(=O)n1-c1c(OC)cccc1OC [Example 7]	EC50	10 to 100 nM
